# System: Phospho-ERK1/2 in DLD1 cells
# ASSAY_METHOD_TEXT: Phospho-ERK1/2 expression inhibition in DLD1 cells
# Assay type: cell-based
# CONDITION_NOTES: Homo sapiens, DLD-1, 4 hours, read-out: DLD1 pERK IC50
# Description: Example 23: Phospho-ERK1/2 Expression Inhibition in DLD1 Cells DLD1 cells were obtained from American Type Culture Collection (ATCC). DLD1 cells were plated in 96-well plates (VWR #10062-900, or Corning #3904) in 90 uL culture medium at a density of 15,000 cells/well in the RPM11640 growth medium containing 10% FBS and 1% Penicillin Streptomycin, and then incubated at 37° C. overnight. […] 100 uL fresh PBS was added to each well and the plates were imaged on a LI-COR Odyssey CLX plate reader.
RECORDED_ENDPOINT: IC50

>>> result("Cc1c([C@@H](C)Nc2ccnc3ccc(C4(F)CCN(C(=O)C(C)C)CC4)cc23)cccc1C(F)(F)F")
"> 500 nM"
>>> result("COc1cc2nccc(N[C@H](C)c3cccc(C(F)(F)F)c3C)c2cc1N1CCN(C(=O)C2COC2)CC1")
"> 500 nM"
>>> result("CC(=O)N1CCN(c2ccc3nccc(N[C@H](C)c4cccc(C(F)(F)F)c4C)c3c2)[C@H](C)C1")
"> 500 nM"
>>> result("C[C@@H](Nc1ccnc2ccc(N3CCC(N)CC3)cc12)c1cccc(C(F)F)c1F")
"> 500 nM"
>>> result("COC1(c2ccc3nccc(N[C@H](C)c4cccc(C(F)(F)F)c4C)c3c2)CCN(C(=O)CF)CC1")
"150 to 500 nM"
>>> result("CO[C@@]1(c2ccc3nccc(N[C@H](C)c4cccc(C(F)F)c4F)c3c2)CCN(C(=O)C2CC2)C1")
"> 500 nM"
>>> result("C[C@@H](Nc1ccnc2ccc(N3CC[C@@H](N)C3)cc12)c1cccc(C(F)F)c1F")
"150 to 500 nM"
>>> result("CO[C@]1(c2ccc3nccc(N[C@H](C)c4cccc(C#N)c4C)c3c2)CCN(C(C)=O)C1")
"≤ 150 nM"

Kindly give each listed record's IC50.
1. Cc1c([C@@H](C)Nc2ccnc3ccc(N4CCNC[C@@H]4C)cc23)cccc1C(F)(F)F
2. CC(=O)N[C@@H]1CCN(c2ccc3nccc(N[C@H](C)c4cccc(C(F)(F)F)c4C)c3c2)C1
3. C[C@@H](Nc1ccnc2ccc(N3CCOCC3)cc12)c1cccc(C(F)F)c1F
4. C[C@@H](Nc1ccnc2ccc(N3CC[C@@H](O)C3)cc12)c1cccc(C(F)F)c1F
5. C[C@@H](Nc1ccnc2ccc(N3CCN(C(=O)C4COC4)CC3)cc12)c1cccc(C(F)F)c1F
6. COC1(c2ccc3nccc(N[C@H](C)c4cccc(C(F)(F)F)c4C)c3c2)CCN(C(C)=O)CC1

Response line:
["> 500 nM", "> 500 nM", "≤ 150 nM", "≤ 150 nM", "≤ 150 nM", "150 to 500 nM"]

Kindly give each listed record's IC50.
1. C[C@@H](Nc1ccnc2ccc(N3CC[C@@H](N(C)C)C3)cc12)c1cccc(C(F)F)c1F
2. Cc1c([C@@H](C)Nc2ccnc3ccc(N4CC5CCC(C4)N5)cc23)cccc1C(F)(F)F
3. Cc1c([C@@H](C)Nc2ccnc3ccc(N4CCn5c(C)nnc5C4)cc23)cccc1C(F)(F)F
4. Cc1c([C@@H](C)Nc2ccnc3ccc(N4CCC(N(C)C)CC4)cc23)cccc1C(F)(F)F
5. CC(=O)N1CCN(c2ccc3nccc(N[C@H](C)c4cccc(C(F)(F)F)c4C)c3c2)CC12CC2
6. C[C@@H](Nc1ccnc2ccc(C3CCNCC3)cc12)c1cccc(C(F)F)c1F
7. CO[C@@]1(c2ccc3nccc(N[C@H](C)c4cccc(C(F)F)c4F)c3c2)CCN(C(C)=O)C1
8. C[C@@H](Nc1ccnc2ccc(N3CC[C@@H](NC(=O)OC(C)(C)C)C3)cc12)c1cccc(C(F)F)c1F

Response line:
> 500 nM
> 500 nM
> 500 nM
> 500 nM
> 500 nM
> 500 nM
> 500 nM
150 to 500 nM

Kindly give each listed record's IC50.
1. CC(=O)N1CC=C(c2ccc3nccc(N[C@H](C)c4cccc(C(F)F)c4F)c3c2)C1
2. CO[C@@]1(c2ccc3nccc(N[C@H](C)c4cccc(C#N)c4C)c3c2)CCN(C(C)=O)C1

Response line:
> 500 nM
> 500 nM
